# protocol-notes: qHTS Assay for Lipid Storage Modulators in Drosophila S3 Cells; also: potency is read from the fitted curve at half-maximal effect
# protocol-conditions: BODIPY lipid droplet fluorescence, 18-24 h, cells fed with added oleic acid; series mostly up to 46.1 µM
Hit rate of the full screen: of about 320,000 compounds, about 2,100 (0.66%) were called active. Roughly 53% stayed inconclusive and do not appear here. Many of the other results were omitted from the sample, so actives are more common in it than they were.
property-label: Potency

compound | measured-result
CC1CCCCN1C(=O)CSc1nnc2c(n1)[nH]c1ccccc12 (configuration not stated) | 580 nM (active)
Cc1ccc(C(=O)NNC(=O)CSc2nnc3c(n2)[nH]c2ccc(F)cc23)cc1 | inactive
O=C1c2cc(Cl)ccc2OC2(CCNCC2)C12CC(c1ccccc1)=NO2 (configuration not stated) | inactive
CC(C)c1ccc2[nH]c3nc(SCC(=O)N4CCOCC4)nnc3c2c1 | inactive
CCC(C)NCCOCCSc1ccc(Cl)cc1 (configuration not stated) | inactive
O=C(NC(Cc1ccccc1)C(=O)O)/C(=C/c1ccc(Cl)cc1)NC(=O)c1ccccc1 (configuration not stated) | inactive
O=C(COC(=O)C1CC2C=CC1C2)NCc1ccccc1Cl (configuration not stated) | inactive
CC1CCCCN1C(=O)CSc1nnc2c(n1)[nH]c1ccc(F)cc12 (configuration not stated) | inactive
CN(C)c1ccc(NC(=O)C[n+]2ccccc2)cc1 | inactive
CCN(CC)S(=O)(=O)c1ccc(/C=C/C(=O)OCC(=O)Nc2cccc3ccccc23)cc1 | inactive
Cc1ccc(C)c(-n2c(SCC(=O)O)nc3sc4c(c3c2=O)CCCC4)c1 | 116 nM (active)
CC1Cc2ccccc2N1C(=O)CSc1nnc2c(n1)[nH]c1ccccc12 (configuration not stated) | inactive
C=CCN(C(=O)Cn1c(C(=O)OC)cc2oc(C)cc21)c1ccccc1 | inactive
CCc1ccc2[nH]c3nc(SCC(=O)NCC4CCCO4)nnc3c2c1 (configuration not stated) | inactive
O=C(COC(=O)/C=C/c1ccccc1)NCc1ccccc1Cl | inactive
Cc1ccc(S(=O)(=O)N(CC(=O)NC2CC2)c2ccc(C)c(Cl)c2)cc1 | inactive
O=C(NC(Cc1ccccc1)C(=O)O)/C(=C\c1cccc([N+](=O)[O-])c1)NC(=O)c1ccco1 (configuration not stated) | inactive
Cc1cc(CN2CCC(N3CCC(C(=O)NC4CC4)CC3)CC2)cc(C)c1O | inactive
O=C(CN1C(=O)CCC1=O)Nc1cccc(NC(=O)CN2C(=O)CCC2=O)c1 | inactive
O=C(NC(Cc1ccccc1)C(=O)O)/C(=C\c1ccc(Cl)cc1)NC(=O)c1ccco1 (configuration not stated) | 41.1 nM (active)
O=C(NC(Cc1ccccc1)C(=O)O)/C(=C/c1ccco1)NC(=O)c1cccc(Br)c1 (configuration not stated) | inactive
O=C(CSc1nnc2c(n1)[nH]c1ccc(F)cc12)NC1CC1 | 20600 nM (active)

* * *

# protocol-notes: qHTS Assay for Lipid Storage Modulators in Drosophila S3 Cells
# protocol-conditions: BODIPY lipid droplet fluorescence, 18-24 h, cells fed with added oleic acid; series mostly up to 46.1 µM
Hit rate of the full screen: of about 320,000 compounds, about 2,100 (0.66%) were called active. Another 53% or so got no clear call; they are omitted. Calls come from the whole dose curve; as a rule, active = well fitted inhibition curve with a large enough effect in the signal ratio, with a control signal flat (not every such curve was filed as active); inconclusive = small, poorly fitted or top-dose-only effect, or effect the other way, or a change in a side signal; inactive = flat fitted curve, though single readings scatter; the % refers to the signal ratio. The sample holds actives, similar compounds and a random draw of the others, so the mix is not that of the screen.
Labels: active, inactive

chem-smiles | label-value
CCSc1nsc(NC(=O)Nc2ccc(F)cc2F)n1 | inactive
COC(=O)c1c(NC(=O)CN2CCN(C(=O)c3ccco3)CC2)c2c(C)cccc2n1C | inactive
Cc1csc(NC(=O)CSc2ncnc3ccccc23)n1 | inactive
CCOC(=O)c1c(SCC(=O)Nc2nc(C)cs2)nc(=O)[nH]c1C | active
O=C(CSc1nnc(-c2ccccc2Cl)o1)N1CCCCC1 | inactive
O=C1CCN(Cc2ccccc2)CCN1CCO | inactive
Cc1csc(NC(=O)CSc2nc3ccccc3c3c2CCCC3)n1 | inactive
O=C(CSc1nnc(-c2ccccc2F)o1)N1CCCC1 | active
O=C(CN(C(=O)CCC(=O)Nc1ccccn1)c1ccc2c(c1)OCCO2)NCCc1ccccc1 | inactive
CCN(CC(=O)NC1CCCC1)S(=O)(=O)c1ccc(C)cc1 | inactive
Cc1ccccc1-c1nnc(SCC(=O)N2CCCC2)o1 | inactive
C=CCSc1nsc(NC(=O)Nc2ccc(F)cc2)n1 | active
